This listing pairs substances with measured Signal (peptides that bind to 23K21 and 8I10).
System: HuM2e antibody 23K12
Assay type: binding, human
Please state the value as a number alone, without comment.

# annotated cases, reported Signal (peptides that bind to 23K21 and 8I10) shown
# Substance, Quantitative result
records = [
    ("477 (SLLTECGSLLCEV; epitope peptide) [compound 477]", 1206),
    ("701 (SLLTEVETPIRNEWGCKCNDSSD; epitope peptide) [compound 701]", 715),
    ("577 (SLLTEVETPIRNIWGCRCNDSSD; epitope peptide) [compound 577]", 862),
    ("453 (SLLTEVETPIRNEAGCRCNDSSD; epitope peptide) [compound 453]", 1311),
]

Please look at the following substance next.
Param request: Signal (peptides that bind to 23K21 and 8I10) | system HuM2e antibody 23K12 | item 605 (SLLTEVETPIRNMWGCRCNDSSD; epitope peptide) [compound 605] 820
